# testedSystem: T1, human IL-2Rβ (human, UniProt P14784 27-240, limits assumed)
# T1 construct: Recombinant human IL-2Rβ protein, coated on ELISA plates or immobilized on a CM5 chip; also called hu IL-2R; interleukin 2 receptor β-chain
# T1 sequence: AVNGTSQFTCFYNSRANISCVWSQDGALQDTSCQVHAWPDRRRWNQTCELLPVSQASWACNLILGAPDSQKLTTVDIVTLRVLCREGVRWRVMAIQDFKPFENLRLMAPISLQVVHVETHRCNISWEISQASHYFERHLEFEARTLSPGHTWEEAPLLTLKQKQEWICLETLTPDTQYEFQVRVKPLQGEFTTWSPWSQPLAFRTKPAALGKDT
# assayComment: P.E. binding ELISA, human IL-2Rβ coated
measuredProperty: OD450 nm (P.E. binding ELISA)

Consider the reported OD450 nm (P.E. binding ELISA) for these binders:
binder	OD450 nm (P.E. binding ELISA)
FJ1427_P035MP06C10 (VHH, Soluble VHH in periplasmic extract (P.E.); also called Clone nr; 555) VHH: QVQLVESGGGLVQAGGSLRLSCAVSGDVFVRYTMAWFRQAPGKEREFVASVTDSGRTTEYVDSVKGRFTVSRDNAKNTAYLQMNNLKPEDTAVYYCAANTDYFQIRSLDLNTWGQGTQVTVSS	0.358 OD450 nm
FJ1427_P035MP06G03 (VHH, Soluble VHH in periplasmic extract (P.E.); also called Clone nr; 503) VHH: QVQLVESGGGLVQAGGSLRLSCVVSGDVFVRYTMAWFRQAPGKEREFVAVVTDSGRTTEYVDSVKGRFTVSRDNAKNTVYLQMNNLKPEDTAVYYCAANTDYFQIRSVDNNAWGQGTQVTVSS	0.267 OD450 nm
FJ1427_P035MP06G04 (VHH, Soluble VHH in periplasmic extract (P.E.); also called Clone nr) VHH: QVQLQESGGGLVQAGGSLRLSCVVSGDVFVRYTMAWFRQAPGKEREFVAVVTDSGRTTEYVDSVKGRFTVSRDNAKNTVYLQMNNLKPEDTAVYYCAANTDYFQIRSVDNNAWGQGTQVTVSS	0.213 OD450 nm
FJ1427 P035MP06F04 (VHH, Soluble VHH in periplasmic extract (P.E.); also called Clone nr; 510) VHH: QVQLVESGGGLVQAGGSLRLSCAVSGDVFVRYTMAWFRQAPGKEREFVASVTDSGRTTEYVDSVKGRFTVSRDNAKNTVYLQMNSLKPEDTAVYYCAANTDYFQIRSLRANTWGQGTQVTVSS	1.33 OD450 nm
FJ1427_P035MP06E04 (VHH, Soluble VHH in periplasmic extract (P.E.); also called Clone nr) VHH: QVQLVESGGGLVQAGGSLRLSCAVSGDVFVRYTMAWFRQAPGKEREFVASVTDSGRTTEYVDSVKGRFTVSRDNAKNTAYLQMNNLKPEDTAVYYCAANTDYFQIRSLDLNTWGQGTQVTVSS	0.974 OD450 nm

q: Which OD450 nm (P.E. binding ELISA) is listed for FJ1427_P035MP06E06 (VHH, Soluble VHH in periplasmic extract (P.E.); also called Clone nr; 525) VHH: EVQLVESGGGLVQAGGSLRLFCAVSGDVFVRYTMAWFRQAPGKEREFVASVTDSGRTTEYVDSVKGRFTVSRDNAKDTAYLQMNNLKPEDTAVYYCAANTDYFQIRSLDLNTWGQGTQVTVSS ?
a: 1.45 OD450 nm

q: Which OD450 nm (P.E. binding ELISA) is listed for FJ1427_P035MP06B07 (VHH, Soluble VHH in periplasmic extract (P.E.); also called Clone nr; 530) VHH: EVQLVESGGGLVQAGGSLRLSCAVSGDVFVRYTMAWFRQAPGKEREFVASVTDSGRTTEYVDSVKGRFTVSRDNAKNTAYLQMNNLKPEDTAVYYCAANTDYFQIRSLDLNTWGQGTQVTVSS ?
a: 1.01 OD450 nm

q: Which OD450 nm (P.E. binding ELISA) is listed for FJ1427_P035MP06E08 (VHH, Soluble VHH in periplasmic extract (P.E.); also called Clone nr) VHH: EVQLVESGGGLVQAGGSLRLSCAVSGDVFVRYTMAWFRQAPGKEREFVASVTDSGRTTEYVDSVKGRFTVSRDNAKNTAYLQMNNLKPEDTAVYYCAANTDYFQIRSLDLNTWGQGTQVTVSS ?
a: 0.359 OD450 nm
